Tested on: Fibroblast
Assay: Multiplex assay against human fibroblast
Type: toxicity, cell-based
Conditions: 48 h, 1 µM, compound concentration 1 uM, replicate 2

- molecule: "Cl.NC[C@@H]1O[C@H](C23CC4CC(CC(C4)C2)C3)Cc2c1ccc(O)c2O"
  Population Healthy Nuclei (%): 77
- molecule: "CC(/C=C1\\SC(=S)N(CCCC(=O)Nc2ccc(C(=O)O)c(O)c2)C1=O)=C\\c1ccccc1"
  Population Healthy Nuclei (%): 81
- molecule: "C[C@@H](Oc1cc(-n2cnc3ccc(CN4CCN(C)CC4)cc32)sc1C(N)=O)c1ccccc1C(F)(F)F"
  Population Healthy Nuclei (%): 62
- molecule: "CCCc1cc(C)[nH]c(=O)c1CNC(=O)c1cc(-c2ccc(N3CCN(C(C)C)CC3)nc2)cc2c1cnn2C(C)C"
  Population Healthy Nuclei (%): 63
- molecule: "Cc1c(P(=S)(c2ccccc2)c2ccccc2)n2ccccc2[n+]1C/C=C/c1ccccc1.[Br-]"
  Population Healthy Nuclei (%): 70
- molecule: "CN1C(=O)[C@@H](NC(=O)c2cc3ccccc3[nH]2)N=C(c2ccccc2)c2ccccc21 [DEVAZEPIDE]"
  Population Healthy Nuclei (%): 79
- molecule: "CC(C)C[C@H](NC(=O)[C@H](Cc1ccccc1)NC(=O)CNC(=O)CNC(=O)[C@@H](N)Cc1ccc(O)cc1)C(=O)O"
  Population Healthy Nuclei (%): 73
- molecule: "Oc1cccc(-c2nc(N3CCOCC3)c3oc4ncccc4c3n2)c1"
  Population Healthy Nuclei (%): 62

###

Tested on: U2OS
Test: Multiplex assay against U2OS
Format: toxicity, cell-based
Conditions: human, 12 h, 1 µM, compound concentration 1 uM, replicate 2
Assign a class from recorded Population Fragmented Nuclei (%); defined classes: bin 1 (below 4%), bin 2 (4% to below 10%), bin 3 (10% or more)

- compound: "CN(c1cc(C(F)(F)F)nc(OCCC(=O)O)n1)c1cccc2c1CCC2"
  category: "bin 2"
- compound: "CCCCN(CC)c1nc(C)nc2c1c(C)cn2-c1c(C)cc(C)cc1C.Cl"
  category: "bin 3"
- compound: "Cc1c(Nc2ccc(S(=O)(=O)N3CCN(C)CC3)cc2F)nc2ccc(Nc3cnn(C4CC4)c3)cn2c1=O"
  category: "bin 1"
- compound: "Cc1c(P(=S)(c2ccccc2)c2ccccc2)n2ccccc2[n+]1C/C=C/c1ccccc1.[Br-]"
  category: "bin 3"
- compound: "c1ccc(-c2oc3ncnc(NC[C@@H]4CCCO4)c3c2-c2ccccc2)cc1"
  category: "bin 2"
- compound: "Cl.NC[C@@H]1O[C@H](C23CC4CC(CC(C4)C2)C3)Cc2c1ccc(O)c2O"
  category: "bin 2"
- compound: "N#CCNC(=O)c1ccc(-c2ccnc(Nc3ccc(N4CCOCC4)cc3)n2)cc1 [MOMELOTINIB]"
  category: "bin 1"
- compound: "CC(C)[C@H](CO)Nc1nc(Nc2cccc(Cl)c2)c2ncn(C(C)C)c2n1 [PURVALANOLA]"
  category: "bin 2"
- compound: "CC(C)c1cc(Nc2nc(N3CCC[C@H](N)C3)ncc2C(N)=O)cc(C(C)C)n1"
  category: "bin 3"
- compound: "CCCc1cc(C)[nH]c(=O)c1CNC(=O)c1cc(-c2ccc(N3CCN(C(C)C)CC3)nc2)cc2c1cnn2C(C)C"
  category: "bin 3"
- compound: "CC(Cc1ccc(O)c(O)c1)C(C)Cc1ccc(O)c(O)c1 (centres undefined) [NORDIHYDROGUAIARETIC ACID]"
  category: "bin 1"
- compound: "N#Cc1cccc(C(=O)Nc2cc(-c3ccccc3)nn2-c2ccccc2)c1"
  category: "bin 2"

###

Tested on: Fibroblast
Test: Multiplex assay against human fibroblast
Assay type: toxicity, cell-based
Settings: 24 h, 1 µM, compound concentration 1 uM, replicate 2
This listing pairs compounds with measured Population Healthy Nuclei (%).
quantity.measured: Population Healthy Nuclei (%)

- compound: "Cc1c(Nc2ccc(S(=O)(=O)N3CCN(C)CC3)cc2F)nc2ccc(Nc3cnn(C4CC4)c3)cn2c1=O"
  study.target: "Fibroblast"
  reported.measurement: 31
- compound: "Cc1ccc(NC(=O)Nc2cc(C(F)(F)F)ccc2F)cc1Nc1ccc2c(c1)NC(=O)/C2=C\\c1ccc[nH]1"
  study.target: "Fibroblast"
  reported.measurement: 34
- compound: "N#Cc1cccc(C(=O)Nc2cc(-c3ccccc3)nn2-c2ccccc2)c1"
  study.target: "Fibroblast"
  reported.measurement: 86
- compound: "CCCc1cc(C)[nH]c(=O)c1CNC(=O)c1cc(-c2ccc(N3CCN(C(C)C)CC3)nc2)cc2c1cnn2C(C)C"
  study.target: "Fibroblast"
  reported.measurement: 51
- compound: "CC(C)C[C@H](NC(=O)[C@H](Cc1ccccc1)NC(=O)CNC(=O)CNC(=O)[C@@H](N)Cc1ccc(O)cc1)C(=O)O"
  study.target: "Fibroblast"
  reported.measurement: 84
- compound: "Cc1c(Nc2ccc(S(=O)(=O)N3CCN(C)CC3)cc2F)nc2ccc(-c3cnn(C4CC4)c3)cn2c1=O"
  study.target: "Fibroblast"
  reported.measurement: 34
- compound: "C=CC(=O)Nc1cc(-n2c(=O)ccc3cnc4ccc(-c5ccc(NS(C)(=O)=O)cc5)cc4c32)ccc1C"
  study.target: "Fibroblast"
  reported.measurement: 76
- compound: "Cc1ccc(S(=O)(=O)NC2c3ccccc3Oc3ccccc32)cc1"
  study.target: "Fibroblast"
  reported.measurement: 88
- compound: "CC(/C=C1\\SC(=S)N(CCCC(=O)Nc2ccc(C(=O)O)c(O)c2)C1=O)=C\\c1ccccc1"
  study.target: "Fibroblast"
  reported.measurement: 76
- compound: "CCCCCNC(=N)N/N=C/c1c[nH]c2ccc(OC)cc12.O=C(O)/C=C\\C(=O)O [TEGASEROD MALEATE]"
  study.target: "Fibroblast"
  reported.measurement: 77
- compound: "CCOc1ccn(-c2ccc(F)cc2)c(=O)c1C(=O)Nc1ccc(Oc2ccnc(N)c2Cl)c(F)c1"
  study.target: "Fibroblast"
  reported.measurement: 32
- compound: "CC(C)c1cc(Nc2nc(N3CCC[C@H](N)C3)ncc2C(N)=O)cc(C(C)C)n1"
  study.target: "Fibroblast"
  reported.measurement: 68
- compound: "CC[C@@H]1C(=O)N(C)c2cnc(Nc3ccc(C(=O)NC4CCN(C)CC4)cc3OC)nc2N1C1CCCC1"
  study.target: "Fibroblast"
  reported.measurement: 38
- compound: "CC[C@H](Nc1ncnc2[nH]cnc12)c1nc2cccc(F)c2c(=O)n1-c1ccccc1"
  study.target: "Fibroblast"
  reported.measurement: 30
- compound: "CN(c1cc(C(F)(F)F)nc(OCCC(=O)O)n1)c1cccc2c1CCC2"
  study.target: "Fibroblast"
  reported.measurement: 95
- compound: "CCCCN(CC)c1nc(C)nc2c1c(C)cn2-c1c(C)cc(C)cc1C.Cl"
  study.target: "Fibroblast"
  reported.measurement: 70
- compound: "Oc1cccc(-c2nc(N3CCOCC3)c3oc4ncccc4c3n2)c1"
  study.target: "Fibroblast"
  reported.measurement: 69
- compound: "Cl.Cn1c2c(c3ccc(Cl)c(Cl)c31)C(C#N)C1(CCNCC1)NC2=O (centres undefined)"
  study.target: "Fibroblast"
  reported.measurement: 31
- compound: "CC(C)[C@H](CO)Nc1nc(Nc2cccc(Cl)c2)c2ncn(C(C)C)c2n1"
  study.target: "Fibroblast"
  reported.measurement: 83

###

Tested on: Fibroblast
Assay: Multiplex assay against human fibroblast
Type: toxicity, cell-based
Conditions: 24 h, 10 µM, compound concentration 10 uM, replicate 2
Please note: Population Healthy Nuclei (%) exactly at 40% is -1. Only values below 40% get 1.

- molecule: "Cl.Cn1c2c(c3ccc(Cl)c(Cl)c31)C(C#N)C1(CCNCC1)NC2=O (stereo not given)"
  category: -1
- molecule: "CCCCN(CC)c1nc(C)nc2c1c(C)cn2-c1c(C)cc(C)cc1C.Cl"
  category: -1
- molecule: "Cl.NC[C@@H]1O[C@H](C23CC4CC(CC(C4)C2)C3)Cc2c1ccc(O)c2O"
  category: 1
- molecule: "Cc1c(P(=S)(c2ccccc2)c2ccccc2)n2ccccc2[n+]1C/C=C/c1ccccc1.[Br-]"
  category: 1

###

Recorded measurements of Total Cell Count, one per entry
Test system: U2OS
Test: Multiplex assay against U2OS
Assay type: toxicity, cell-based
Conditions: human, 24 h, 10 µM, compound concentration 10 uM, replicate 2

- smiles: "Cc1c(P(=S)(c2ccccc2)c2ccccc2)n2ccccc2[n+]1C/C=C/c1ccccc1.[Br-]"
  Total Cell Count: 163
- smiles: "CCOC(=O)CCNc1cc(N2CCc3ccccc3CC2)nc(-c2ccccn2)n1"
  Total Cell Count: 165
- smiles: "Cc1c(Nc2ccc(S(=O)(=O)N3CCN(C)CC3)cc2F)nc2ccc(Nc3cnn(C4CC4)c3)cn2c1=O"
  Total Cell Count: 644
- smiles: "CC[C@@H]1C(=O)N(C)c2cnc(Nc3ccc(C(=O)NC4CCN(C)CC4)cc3OC)nc2N1C1CCCC1"
  Total Cell Count: 135
- smiles: "NC(=O)c1ccc2nc(-c3ccc(C4(N)CCC4)cc3)c(-c3ccccc3)n2n1"
  Total Cell Count: 213
- smiles: "Cc1ccc(NC(=O)Nc2cc(C(F)(F)F)ccc2F)cc1Nc1ccc2c(c1)NC(=O)/C2=C\\c1ccc[nH]1"
  Total Cell Count: 205
- smiles: "CC(C)c1cc(Nc2nc(N3CCC[C@H](N)C3)ncc2C(N)=O)cc(C(C)C)n1"
  Total Cell Count: 57
- smiles: "CCOc1ccn(-c2ccc(F)cc2)c(=O)c1C(=O)Nc1ccc(Oc2ccnc(N)c2Cl)c(F)c1"
  Total Cell Count: 133

These entries and their values trace back to ChEMBL document CHEMBL4689842.
